- measuredTarget: T1, human MSLN-FL-his protein (human, UniProt Q13421 296-580)
- T1 construct: made in HEK293E cells, purified on nickel column; also called hMSLN-FL-his; human MSLN full-length protein; not shown: His tag
- T1 sequence (Q13421 other isoform, or with tags, fused parts or gaps): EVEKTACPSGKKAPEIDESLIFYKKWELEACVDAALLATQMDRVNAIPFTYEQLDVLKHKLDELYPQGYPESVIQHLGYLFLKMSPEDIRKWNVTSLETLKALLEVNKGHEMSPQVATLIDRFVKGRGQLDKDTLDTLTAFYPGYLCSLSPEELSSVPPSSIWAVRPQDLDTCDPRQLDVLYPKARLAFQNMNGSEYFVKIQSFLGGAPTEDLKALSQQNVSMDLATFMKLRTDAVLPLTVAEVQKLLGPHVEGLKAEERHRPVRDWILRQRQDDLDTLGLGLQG
- methodSummary: SPR (Biacore), antibody captured on Protein A chip;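 also: measured at 25 °C, analyte injected 240 s in five twofold dilutions from 200 nM, dissociation up to 600 s, double-referenced, fitted with Langmuir 1:1 model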
reportedMetric: kon (M⁻¹ s⁻¹)
The reply should contain only the number, in M⁻¹ s⁻¹.

binder	measured
S009-F4-127.10 (antibody, human IgG1, kappa, V domains shown, human-murine chimeric antibody, human IgG1/kappa constant regions) VH: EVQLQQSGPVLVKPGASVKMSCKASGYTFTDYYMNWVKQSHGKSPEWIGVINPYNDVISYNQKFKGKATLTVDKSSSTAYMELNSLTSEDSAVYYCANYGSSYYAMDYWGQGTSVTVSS VL: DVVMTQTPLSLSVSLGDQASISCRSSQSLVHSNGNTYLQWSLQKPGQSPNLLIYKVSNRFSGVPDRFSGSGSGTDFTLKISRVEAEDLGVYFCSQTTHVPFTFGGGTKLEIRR	2530
S009-F1.2.12 (antibody, human IgG1, kappa, V domains shown, human-murine chimeric antibody, human IgG1/kappa constant regions) VH: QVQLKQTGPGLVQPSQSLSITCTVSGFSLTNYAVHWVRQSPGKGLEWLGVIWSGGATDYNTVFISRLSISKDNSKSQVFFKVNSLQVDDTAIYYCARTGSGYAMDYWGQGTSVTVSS VL: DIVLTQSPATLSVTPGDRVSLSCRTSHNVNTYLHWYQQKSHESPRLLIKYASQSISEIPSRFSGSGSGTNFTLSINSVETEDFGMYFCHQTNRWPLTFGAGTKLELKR	90600
S009-F3.74.20 (antibody, human IgG1, kappa, V domains shown, human-murine chimeric antibody, human IgG1/kappa constant regions) VH: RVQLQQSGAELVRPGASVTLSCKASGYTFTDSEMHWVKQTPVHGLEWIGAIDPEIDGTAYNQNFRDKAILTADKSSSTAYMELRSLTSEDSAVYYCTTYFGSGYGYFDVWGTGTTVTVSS VL: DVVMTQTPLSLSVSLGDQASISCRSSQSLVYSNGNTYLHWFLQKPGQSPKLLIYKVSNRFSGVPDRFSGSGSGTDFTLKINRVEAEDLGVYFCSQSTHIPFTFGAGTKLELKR	10300
S009-F2-56.12 (antibody, human IgG1, kappa, V domains shown, human-murine chimeric antibody, human IgG1/kappa constant regions) VH: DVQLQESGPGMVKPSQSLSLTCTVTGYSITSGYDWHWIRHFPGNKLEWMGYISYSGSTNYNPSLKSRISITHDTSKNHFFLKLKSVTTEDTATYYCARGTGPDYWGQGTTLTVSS VL: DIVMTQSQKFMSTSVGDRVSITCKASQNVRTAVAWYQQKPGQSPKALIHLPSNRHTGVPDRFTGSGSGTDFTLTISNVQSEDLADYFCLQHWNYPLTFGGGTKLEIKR	72400

Proceeding to the next binder to report its kon.
-- ask May I ask what kon has been recorded for S009-F3.80.22 (antibody, human IgG1, kappa, V domains shown, human-murine chimeric antibody, human IgG1/kappa constant regions) VH: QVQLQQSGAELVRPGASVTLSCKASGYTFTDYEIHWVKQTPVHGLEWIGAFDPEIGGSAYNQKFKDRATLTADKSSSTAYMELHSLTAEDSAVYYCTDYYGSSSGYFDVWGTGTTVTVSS VL: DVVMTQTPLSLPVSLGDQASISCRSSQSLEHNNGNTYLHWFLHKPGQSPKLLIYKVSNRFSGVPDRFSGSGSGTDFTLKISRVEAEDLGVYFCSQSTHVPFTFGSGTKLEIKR ?
-- reply 2200
